molecular target: Progesterone receptor (Homo sapiens); experiment: qHTS assay to identify small molecule antagonists of the progesterone receptor (PR) signaling pathway (AID 1346795); details: PR-UAS-bla HEK293T, beta-lactamase FRET ratio, 16 h; series mostly up to 92.4 µM
Records with an inconclusive call do not appear. The source made the active and inactive calls. The call rests on the fitted dose curve; in most records, active means well fitted inhibition curve with a large enough effect in the signal ratio in the repeat runs (not every such curve was filed as active); inconclusive means weak or mixed curves; inactive means flat fitted curve, though single readings scatter; the % refers to the signal ratio.
Parameter call: string, one of active, inactive

Would you please look over these solved cases?
CC/C(=C(/CC)c1ccc(O)cc1)c1ccc(O)cc1 ... active
Nc1ccc(N)c(Cl)c1 ... active

Write down the call the test reported for this molecule. Item: NC[C@H](O)c1ccc(O)c(O)c1
inactive

Write down the call the test reported for this molecule. Item: CC(C)=CCO
inactive

Write down the call the test reported for this molecule. Item: C=C1C[C@H]2[C@@H]3C=C(C)C4=CC(=O)CC[C@]4(C)[C@H]3CC[C@]2(C)[C@@]1(OC(C)=O)C(C)=O
inactive

Write down the call the test reported for this molecule. Item: CC(=O)Oc1c(C)c(C)c2c(c1C)CC[C@@](C)(CCC[C@H](C)CCC[C@H](C)CCCC(C)C)O2
inactive

Write down the call the test reported for this molecule. Item: C[N+](C)(C)CCO
inactive

Write down the call the test reported for this molecule. Item: C/C=C/C(=O)N(CC)c1ccccc1C
inactive

Write down the call the test reported for this molecule. Item: c1ccc2c(c1)ccc1cc3c(ccc4ccccc43)cc12
inactive

Write down the call the test reported for this molecule. Item: CC1(C)OC(=O)NC1=O
inactive

Write down the call the test reported for this molecule. Item: CC[C@]12CCCN3CCc4c(n(c5ccccc45)[C@@](O)(C(=O)OC)C1)[C@@H]32
inactive

Write down the call the test reported for this molecule. Item: Clc1ccc(Sc2cc(Cl)c(Cl)cc2Cl)cc1
active

====

target: Nuclear receptor ROR-gamma (Homo sapiens) (UniProt P51449); assay: qHTS assay to identify small molecule antagonists of the retinoid-related orphan receptor gamma (ROR-gamma) signaling pathway (AID 1159521;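 further: CHO cells with doxycycline inducible ROR-gamma driving an RORE luciferase reporter; top concentration of the series differs between compounds; on the % scale 0 is the no-effect control and ±100 the full control effect; nearly all actives have a fitted effect of over 50% in size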); details: Tet-on RORgamma CHO cells, RORE-luciferase, 16 h; series mostly up to 92.4 µM
Inconclusive results are not listed. Active and inactive are the calls of the source. The call rests on the fitted dose curve; in most records, active means well fitted inhibition curve with a large enough effect in the repeat runs; inconclusive means weak or mixed curves, or effect the other way; inactive means no such curve, though single readings can be large or run the other way.
Parameter call: string, one of active, inactive

Would you please look over these solved cases?
CCC/C=C/C=O ... inactive
OC[C@H]1O[C@@H]2O[C@H]3[C@H](O)[C@@H](O)[C@@H](O[C@H]4[C@H](O)[C@@H](O)[C@@H](O[C@H]5[C@H](O)[C@@H](O)[C@@H](O[C@H]6[C@H](O)[C@@H](O)[C@@H](O[C@H]7[C@H](O)[C@@H](O)[C@@H](O[C@H]1[C@H](O)[C@H]2O)O[C@@H]7CO)O[C@@H]6CO)O[C@@H]5CO)O[C@@H]4CO)O[C@@H]3CO ... inactive
NCCOCCO ... inactive
C=CCCCCCCCCCC ... inactive

Write down the call the test reported for this compound. Item: Nc1cc([N+](=O)[O-])ccc1C(=O)O
inactive

Write down the call the test reported for this compound. Item: Cc1ccc(C)c(O)c1
inactive

====

target: Androgen receptor (Homo sapiens); assay: qHTS assay to identify small molecule antagonists of the androgen receptor (AR) signaling pathway using the MDA cell line (AID 743042; further: nearly all actives have a fitted effect of over 55% in size; further: potency means the concentration at half of the fitted maximal effect); details: MDA-kb2 AR-luc, MMTV luciferase, R1881 antagonist, 16 h; series mostly up to 70.3 µM
Records with an inconclusive call do not appear. Calls of active or inactive are those of the source. The call rests on the fitted dose curve; in most records, active means well fitted inhibition curve with a large enough effect in the repeat runs; inconclusive means weak or mixed curves, or effect the other way; inactive means no such curve, though single readings can be large or run the other way.
readoutLabel: Potency

See these solved cases before continuing.
CC(=O)Oc1ccc(C(c2ccc(OC(C)=O)cc2)c2ccccn2)cc1 ... 0.765 µM (active)
CC1(C)C(C=C(Cl)Cl)C1C(=O)OCc1cccc(Oc2ccccc2)c1 (stereo unspecified) ... inactive
CCc1cccc2c3c([nH]c12)C(CC)(CC(=O)O)OCC3 (stereo unspecified) ... inactive
c1ccc2c(c1)[nH]c1ccccc12 ... inactive
O=Cc1ccccc1C=O ... 8.63 µM (active)

Potency lookup needed for C=C1C[C@H]2[C@@H]3C=C(C)C4=CC(=O)CC[C@]4(C)[C@H]3CC[C@]2(C)[C@@]1(OC(C)=O)C(C)=O , thanks.
inactive

====

test: qHTS assay to identify small molecule agonists of the retinoic acid receptor (RAR) signaling pathway (AID 1159553); conditions: C3RL4 RARE luciferase reporter, agonist, 6 h; further: on the % scale 0 is the no-effect control and ±100 the full control effect
Results filed as inconclusive are left out. The source made the active and inactive calls. The call rests on the fitted dose curve; in most records, active means well fitted activation curve with a large enough effect in the repeat runs; inconclusive means weak or mixed curves, or effect the other way; inactive means no such curve, though single readings can be large or run the other way.
readoutLabel: outcome

C=C[Si](OCCOC)(OCCOC)OCCOC ... inactive
CN(C)/N=N/c1nc[nH]c1C(N)=O ... inactive
FC(F)(F)C(Cl)Br (stereo not drawn) ... inactive

====

assay: qHTS assay to identify small molecule agonists of the estrogen receptor alpha (ER-alpha) signaling pathway in the presence of an antagonist - cell viability counter screen (AID 1259386); conditions: VM7Luc4E2 viability, CellTiter-Fluor fluorescence, 22 h; series mostly up to 92.4 µM;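 further: cells exposed to compounds for 22 h at 37 °C before the viability read; nearly all actives have a fitted effect of over 30% in size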
Inconclusive results are not listed. Active and inactive are the calls of the source. The call rests on the fitted dose curve; in most records, active means well fitted cell-killing curve with a large enough effect in the repeat runs; inconclusive means weak or mixed curves, or effect the other way; inactive means no such curve, though single readings can be large or run the other way.
Parameter call: string, one of 1 (active), 0 (inactive)

Would you please look over these solved cases?
ClC/C=C/CCl ... 0
Clc1ccc(Sc2cc(Cl)c(Cl)cc2Cl)cc1 ... 0
Nc1ccc(N)c(Cl)c1 ... 1
OCCNCCO ... 0
CC1(C)O[C@@H]2C[C@H]3[C@@H]4C[C@H](F)C5=CC(=O)C=C[C@]5(C)[C@@]4(F)[C@@H](O)C[C@]3(C)[C@]2(C(=O)CO)O1 ... 0

Write down the call the test reported for this compound. Item: C=C1C[C@H]2[C@@H]3C=C(C)C4=CC(=O)CC[C@]4(C)[C@H]3CC[C@]2(C)[C@@]1(OC(C)=O)C(C)=O
0

====

assay: qHTS assay to identify small molecule antagonists of the androgen receptor (AR) signaling pathway using the MDA cell line in the presence of 0.5 nM R1881 - cell viability counter screen (AID 1259242); settings: MDA-kb2 viability, CellTiter-Fluor protease fluorescence, 16 h; series mostly up to 92.4 µM; further: on the % scale 0 is the no-effect control and ±100 the full control effect; nearly all actives have a fitted effect of over 45% in size
Records with an inconclusive call do not appear. Activity calls are given as the source filed them. The call rests on the fitted dose curve; in most records, active means well fitted cell-killing curve with a large enough effect in the repeat runs; inconclusive means weak or mixed curves, or effect the other way; inactive means flat fitted curve, though single readings scatter.
readoutLabel: outcome

See these solved cases before continuing.
CCCOCCO ... inactive
COc1ccc2nc(N)sc2c1 ... inactive
C=CC(C)(O)CCC=C(C)C (stereo unspecified) ... inactive
CCCCCC1C(=O)CCC1CC(=O)OC (stereo unspecified) ... inactive
CC(=O)OC(C)C ... inactive
[O-]/[N+](=N\O)c1ccccc1 ... inactive
CC(=O)Nc1ccc2c(c1)Cc1cc(NC(C)=O)ccc1-2 ... inactive
C[C@]12CC[C@@H]3c4ccc(O)cc4CC[C@H]3[C@@H]1CC[C@H]2O ... inactive
CN(Cc1cnc2nc(N)nc(N)c2n1)c1ccc(C(=O)N[C@@H](CCC(=O)O)C(=O)O)cc1 ... inactive
COC(=O)c1ccc(C)cc1 ... inactive

outcome lookup needed for C=C1C[C@H]2[C@@H]3C=C(C)C4=CC(=O)CC[C@]4(C)[C@H]3CC[C@]2(C)[C@@]1(OC(C)=O)C(C)=O , thanks.
inactive

outcome lookup needed for CCC/C=C/C=O , thanks.
inactive

outcome lookup needed for CCCCCCC(C)O (stereo unspecified) , thanks.
inactive

outcome lookup needed for C=CC(=O)OCCCC , thanks.
inactive

outcome lookup needed for Cc1ccc([N+](=O)[O-])c(C)c1 , thanks.
inactive

outcome lookup needed for C=CCNCC=C , thanks.
inactive

====

assay: qHTS assay to identify small molecule antagonists of the retinoid acid receptor (RAR) signaling pathway - cell viability counter screen (AID 1159551); details: C3RL4 cells viability, ATP luminescence (CellTiter-Glo), 6 h; series mostly up to 92.4 µM; further: on the % scale 0 is the no-effect control and ±100 the full control effect; nearly all actives have a fitted effect of over 35% in size
Inconclusive results are not listed. Calls of active or inactive are those of the source. Calls follow the shape of the dose curve; as a rule, active = well fitted cell-killing curve with a large enough effect in the repeat runs; inconclusive = weak or mixed curves, or effect the other way; inactive = flat fitted curve, though single readings scatter.
readoutLabel: outcome

See these solved cases before continuing.
CC(C)=CCO ... inactive
CN(C)CCCN1c2ccccc2Sc2ccc(Cl)cc21 ... inactive
CCOC(=O)C(C)Oc1ccc(Oc2cnc3cc(Cl)ccc3n2)cc1 (stereo not drawn) ... inactive
Nc1cc(Cl)c(N)c(Cl)c1 ... inactive

outcome lookup needed for C=CN1CCCC1=O , thanks.
inactive

outcome lookup needed for CC1(C)NC(=O)N(c2ccc([N+](=O)[O-])c(C(F)(F)F)c2)C1=O , thanks.
inactive

outcome lookup needed for O=C(O)c1ccc(O)cc1 , thanks.
inactive

outcome lookup needed for Cc1ccc(C)c(O)c1 , thanks.
inactive

====

Molecular target: Androgen receptor (Homo sapiens)
Assay: qHTS assay to identify small molecule antagonists of the androgen receptor (AR) signaling pathway (AID 743035); further: on the % scale 0 is the no-effect control and ±100 the full control effect
Settings: HEK293 AR-UAS-bla, R1881-stimulated, beta-lactamase FRET, 16 h; series mostly up to 58.5 µM
Excerpt: National Center for Advancing Translational Sciences [NCATS] NIH Chemical Genomics Center [NCGC] U.S. Environmental Protection Agency [EPA] National Institutes of Environmental Health Sciences [NIEHS] National Toxicology Program [NTP] U.S. Food and Drug Administration [FDA] Androgen receptor (AR), a nuclear hormone receptor, plays a critical role in AR-dependent prostate cancer and other androgen related diseases. […]
Records with an inconclusive call do not appear. Activity calls are given as the source filed them. The call rests on the fitted dose curve; in most records, active means well fitted inhibition curve with a large enough effect in the signal ratio in the repeat runs (not every such curve was filed as active); inconclusive means weak or mixed curves, or effect the other way; inactive means no such curve, though single readings can be large or run the other way; the % refers to the signal ratio.
readoutLabel: outcome

CC1(C)C(C=C(Cl)Cl)C1C(=O)OCc1cccc(Oc2ccccc2)c1 (stereo not given) ... inactive
CCc1cccc2c3c([nH]c12)C(CC)(CC(=O)O)OCC3 (stereo not given) ... inactive
CC[C@]12CCCN3CCc4c(n(c5ccccc45)[C@@](O)(C(=O)OC)C1)[C@@H]32 ... inactive
CC(=O)Oc1ccc(C(c2ccc(OC(C)=O)cc2)c2ccccn2)cc1 ... inactive

Let us move to another entry and its outcome.
outcome lookup needed for c1ccc2c(c1)ccc1ncccc12 , thanks.
inactive
